From: paper PMC10397247

tested system: T1, 4H3705-AA
T1 chain: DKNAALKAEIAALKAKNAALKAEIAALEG
assay explanation: two-hybrid library CCmax;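 also: natural log of median RNA to DNA barcode read ratio; higher means stronger binding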
cond: mean of both orientations
outcome measure: interaction score
Give the figure by itself; no unit, no explanation.

Worked examples, 8 binders total:
>>> recorded_measurement("DKIAALKAKIAALKAENAALEAEIAALKG [4H2898-AA]")
1.04
>>> recorded_measurement("DENAALEAEIAALKAENAALEAKIAALKG [4H1110-AA]")
2.63
>>> recorded_measurement("DKIAALKAEIAALEAKIAALEAKNAALKG [4H2600-AA]")
0.21
>>> recorded_measurement("DKIAALKAENAALEAKNAALKAKIAALKG [4H2750-AA]")
-0.91
>>> recorded_measurement("DENAALEAEIAALKAKIAALKAKNAALKG [4H1136-AA]")
-1.5
>>> recorded_measurement("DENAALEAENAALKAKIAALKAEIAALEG [4H1257-AA]")
-1.52
>>> recorded_measurement("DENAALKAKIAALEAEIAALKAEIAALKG [4H1802-AA]")
-1.42
>>> recorded_measurement("DKIAALKAKNAALKAEIAALKAENAALKG [4H3020-AA]")
-1.78

## Input Query: interaction score; subject: DEIAALEAKIAALKAKIAALEAENAALEG [4H355-AA]
## Output -1.7

## Input Returns the measured interaction score for the input binder. Input: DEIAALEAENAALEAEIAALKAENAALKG [4H140-AA]
## Output 1.36

## Input Consider the binder DKIAALKAENAALEAKIAALEAEIAALEG [4H2721-AA] and give its measured interaction score.
## Output 1.59

## Input For the binder DKNAALEAKIAALEAKIAALEAKIAALEG [4H3365-AA] , what interaction score is on record?
## Output -1.25

## Input For the binder shown here, DKNAALKAEIAALKAEIAALEAENAALEG [4H3651-AA] , give the reported interaction score.
## Output -1.53
